# Tested on: SNU-449 (Hepatocellular Carcinoma);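 note: after 72 h of two-drug dosing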
# run_description: Bliss excess, mean over the matrix (fraction); higher = more synergy
value_type: Bliss excess

Solved cases (2 shown):
>  <molecule>
CN(CCO)CC[C@H](CSc1ccccc1)Nc1ccc(S(=O)(=O)NC(=O)c2ccc(N3CCC([C@@H](O)c4ccccc4-c4ccc(Cl)cc4)CC3)cc2)cc1S(=O)(=O)C(F)(F)F [AZD4320] + C[C@@H]1COCCN1C2=NC(=NC(=C2)C3(CC3)[S@](=N)(=O)C)C4=C5C=CNC5=NC=C4 [AZD6738] (first compound max 1 µM, 7x7, partner max 10 µM)

>  <target_desc>
SNU-449 (Hepatocellular Carcinoma);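 note: after 72 h of two-drug dosing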

>  <observed_result>
-0.0721

$$$$
>  <molecule>
Cc1nc(Nc2ncc(C(=O)Nc3c(C)cccc3Cl)s2)cc(N2CCN(CCO)CC2)n1 [Dasatinib] + CC(=O)Nc1cccc(-n2c(=O)n(C3CC3)c(=O)c3c(Nc4ccc(I)cc4F)n(C)c(=O)c(C)c32)c1 [Trametinib] (first compound max 2 µM, 7x7, partner max 1 µM)

>  <target_desc>
SNU-449 (Hepatocellular Carcinoma);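 note: after 72 h of two-drug dosing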

>  <observed_result>
-0.0631

$$$$

Continue with the next molecule.
Param item: C=CCn1c(=O)c2cnc(Nc3ccc(N4CCN(C)CC4)cc3)nc2n1-c1cccc(C(C)(C)O)n1 [AZD1775] + C[C@@H]1COCCN1C2=NC(=NC(=C2)C3(CC3)[S@](=N)(=O)C)C4=C5C=CNC5=NC=C4 [AZD6738] (first compound max 1 µM, partner max 10 µM) ; param system: SNU-449 (Hepatocellular Carcinoma); output Bliss excess: -0.0061
